Hello, the source for this data is patent US20250027068, in case you need it.

Task for the reader: assign each of the following proteins its reported Enzyme Activity Endpoint Assay: scIgG.
- experimental.target: pooled human IgG
Give just the numeric value; ng/µL need not be written.

QUERY: Please look at this protein and report its Enzyme Activity Endpoint Assay: scIgG: PRT-45 (protein) MANQEIRYSEVTPYHVTSVWTKGVTPPANFTQGEDVFHAPYVANQGWYDITKTFNGGDDLLCGAATAGNMLHWWFDQNKEQIDRYLEEHPEKQKINFNGEQMFDVKEAIDTKNSQTDSKLFEYFKEKAFPYLSTKHLGVFPDLVLDMFINGYRLSLTNHGPTPVKEGSKDPRGGIFDAVFTRGDQSKLLTSRHDFKEKNLEEISDLIKKELTEGKALGLSHTYANVRINHVINLWGADFDSNGNLKAIYVTDSDSNASIGMKKYFVGVNSAGKVAISAKEIKEDNIGAQVLGLFTLSTGQDSWNQTN
RESULT: 67

QUERY: Input PRT-5 (protein) MANQEIRYSEVTPYHVTSVWTKGVTPPANFTQGEDVFHAPYVANQGWYDITKTFNGKDDLLCGAATAGNMLHWWFDQNKDQIERYLKKHPEKQKINFNGEQMFDVKEAIDTKNSQLDSKLFEYFKEKAFPYLSTKHLGVFPDHVIDMFINGYRLSLTNHGPTPVKEGSKDPRGGIFDAVFTRGDQSKLLTSRHDFKEKNLKEISDLIKKELTEGKALGLSHTYANVRINHVINLWGADFDSNGNLEAIYVTDSDSNASIGMKKYFVGVNSAGKVAISAKEIKEDNIGAQVLGLFTLSTGQDIWNQTN , output reported Enzyme Activity Endpoint Assay: scIgG.
RESULT: 34

QUERY: Supply recorded Enzyme Activity Endpoint Assay: scIgG for PRT-48 (protein) MANQEIRYSEVTPYHVTSVWTKGVTPPANFTQGEDVFHAPYKANQGWYDINKTFNGGDDLLCGAATAGNMLHWWFDQNKDYIDRYLEEHPEKQKINFNGEQMFDVKEAIDTKNNQTDSKLFEYFKEKAFPYLSTKHLGVFPDRVIDMFINGYRLSLTNHGPTPVKEGSKDPRGGFFDDVFTRGDQSKLLTSRHDFKEKNLKEISDLIKKELKEGKALGLSHTYANVRINHVINLWGADFDSNGNLKAIYVTDSDSNASVGMKKYRVGVNSAGKVAISAKEIKEDNIGAQVLGLFTLSTGQDSWNQTN here.
RESULT: 0

QUERY: Output measured Enzyme Activity Endpoint Assay: scIgG for this item: PRT-37 (protein) MANQEIRYSEVTPYHVTSVWTKGVTPPANFTQGEDVFHAPYVANQGWYDITKTFNGKDDLLCGAATAGNMLHWWFDQNKDQIKRYLEEHPEKQKINFNGEQMFDVKEAIDTKNHQLDSKLFEYFKEKAFPYLSTKHLGVFPDHVIDMFINGYRLSLTNHGPTPVKEGSKDPRGGIFDAVFTRGDQSKLLTSRHDFKEKTLKEISDLIKKELTEGKALGLSHTYANVRINHVINLWGADFDSNGNLKAIYVTDSDSNASIGMKKYFVGVNSAGKVAISAKEIKEDNIGAQVLGLFTLSTGQDSWNQTN
RESULT: 69
